- tgt: UniProt P41145
- assayProtocol: κ-opioid receptor β-Arr2 activity response, U2OS cells
- Format: cell-based
- Set-up: expressed in transfected cells; host or cells: U-2 OS
- testConditions: U2OS cells
Label true when Emax >= 40%; otherwise false.

molecule: CCOC(=O)c1ccc(NC(=O)NCC[C@]23CCN(CC4CC4)[C@H](Cc4ccc(OC)cc42)[C@@H]3C)cc1 [Compound 1]
answerLabel: true

molecule: C[C@H]1[C@H]2Cc3ccc(O)cc3[C@]1(CCN1CCC(N(C3CC3)S(=O)(=O)c3ccc(Cl)cc3)CC1)CCN2C [Compound 58]
answerLabel: true

molecule: C[C@H]1[C@H]2Cc3ccc(O)cc3[C@]1(CCN1CCS(=O)(=O)CC1)CCN2C [Compound 10]
answerLabel: false

molecule: COC(=O)[C@H](C)NCC[C@]12CCN(CC3CC3)[C@H](Cc3ccc(OC)cc31)[C@@H]2C [Compound 38]
answerLabel: true

molecule: COc1ccc2c(c1)[C@]1(CCNC(=O)[C@@H]3CCCN3C(C)=O)CCN(CC3CC3)[C@H](C2)[C@@H]1C [Compound 5]
answerLabel: true

molecule: COC(=O)c1ccc(CC(=O)NCC[C@]23CCN(CC4CC4)[C@H](Cc4ccc(OC)cc42)[C@@H]3C)cc1 [Compound 30]
answerLabel: false

molecule: C[C@H]1[C@H]2Cc3ccc(O)cc3[C@]1(CCCC(=O)N(C)C)CCN2CC1CCC1 [Compound 28]
answerLabel: true

molecule: COc1ccc2c(c1)[C@@]1(CCOCc3ccccc3)CCN(CC3CC3)[C@@H](C2)[C@H]1C [Compound 44]
answerLabel: true

molecule: COc1ccc2c(c1)[C@]1(CCNC(=O)CN)CCN(CC3CC3)[C@H](C2)[C@@H]1C [Compound 33]
answerLabel: true

molecule: C[C@H]1[C@H]2Cc3ccc(O)cc3[C@]1(CCNC(=O)Cc1ccc(C(=O)O)cc1)CCN2CC1CC1 [Compound 31]
answerLabel: false

molecule: COC(=O)[C@H](CCCCN)NCCCC[C@]12CCN(CC3CC3)[C@H](Cc3ccc(O)cc31)[C@@H]2C [Compound 26]
answerLabel: false

molecule: C[C@H]1[C@H]2Cc3ccc(O)cc3[C@]1(CCO)CCN2C [Compound 12]
answerLabel: false

molecule: C[C@H]1[C@H]2Cc3ccc(O)cc3[C@]1(CC(=O)N1CCC(N(C3CC3)S(=O)(=O)c3ccc(Cl)cc3)CC1)CCN2C [Compound 61]
answerLabel: false

molecule: COc1ccc2c(c1)[C@]1(CCO)CCN(CC3CC3)[C@H](C2)[C@@H]1C [Compound 43]
answerLabel: true

molecule: C[C@H]1[C@H]2Cc3ccc(O)cc3[C@]1(CCCCN[C@@H](Cc1ccccc1)C(N)=O)CCN2CC1CC1 [Compound 23]
answerLabel: false

* * *

- tgt: κ-opioid receptor (Homo sapiens, UniProt P41145)
- Sequence (P41145 whole entry): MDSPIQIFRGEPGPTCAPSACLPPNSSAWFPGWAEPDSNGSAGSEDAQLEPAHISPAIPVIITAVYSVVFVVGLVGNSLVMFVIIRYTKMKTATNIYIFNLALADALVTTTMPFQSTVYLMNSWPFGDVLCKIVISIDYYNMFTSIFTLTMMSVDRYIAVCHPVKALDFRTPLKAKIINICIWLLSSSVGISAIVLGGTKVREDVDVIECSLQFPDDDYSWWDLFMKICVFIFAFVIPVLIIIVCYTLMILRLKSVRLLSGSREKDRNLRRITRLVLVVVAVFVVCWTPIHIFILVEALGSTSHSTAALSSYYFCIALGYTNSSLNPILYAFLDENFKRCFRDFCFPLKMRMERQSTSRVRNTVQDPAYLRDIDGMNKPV
- assayProtocol: κ-opioid receptor GTPγS functional assay, U2OS cells
- Type: biochemical
- Set-up: expressed in transfected cells; host or cells: U-2 OS
- testConditions: U2OS cells; read-out: GTPγS κ EC50
- Experimental: Plates were incubated for 30 min at a temperature of about 25° C. with shaking.
pEC50: −log10 of the molar value.
pEC50 values, listed per item
reportedProperty: pEC50

smi: C[C@H]1[C@H]2Cc3ccc(O)cc3[C@]1(CCCCN[C@@H](CCCCN)C(=O)O)CCN2CC1CC1
reportedProperty: pEC50
observedMeasurement: 9.77
//
smi: C[C@H]1[C@H]2Cc3ccc(O)cc3[C@]1(CCNC(=O)Nc1ccc(C(=O)O)cc1)CCN2CC1CC1
reportedProperty: pEC50
observedMeasurement: 8.39
//
smi: C[C@H]1[C@H]2Cc3ccc(O)cc3[C@]1(CCCC(N)=O)CCN2CC1CCC1
reportedProperty: pEC50
observedMeasurement: 9.41
//
smi: COC(=O)[C@H](C)NCC[C@]12CCN(CC3CC3)[C@H](Cc3ccc(OC)cc31)[C@@H]2C
reportedProperty: pEC50
observedMeasurement: 8.68
//
smi: COC(=O)[C@H](CCCCN)NCCCC[C@]12CCN(CC3CC3)[C@H](Cc3ccc(O)cc31)[C@@H]2C
reportedProperty: pEC50
observedMeasurement: 9.85
//
smi: COc1ccc2c(c1)[C@]1(CCNCCc3ccc(S(N)(=O)=O)cc3)CCN(C)[C@H](C2)[C@@H]1C
reportedProperty: pEC50
observedMeasurement: 5.20
//
smi: COc1ccc2c(c1)[C@@]1(CCOCc3ccccc3)CCN(CC3CC3)[C@@H](C2)[C@H]1C
reportedProperty: pEC50
observedMeasurement: 6.48
//
smi: COc1ccc2c(c1)[C@]1(CCNC(=O)[C@H](C)NC(C)=O)CCN(CC3CC3)[C@H](C2)[C@@H]1C
reportedProperty: pEC50
observedMeasurement: 7.42
//
smi: CCOC(=O)c1ccc(NC(=O)NCC[C@]23CCN(CC4CC4)[C@H](Cc4ccc(OC)cc42)[C@@H]3C)cc1
reportedProperty: pEC50
observedMeasurement: 8.24
//
smi: COc1ccc2c(c1)[C@]1(CCN3CCC(N(C4CC4)S(=O)(=O)c4ccc(Cl)cc4)CC3)CCN(C)[C@H](C2)[C@@H]1C
reportedProperty: pEC50
observedMeasurement: 5.15
//
smi: C[C@H]1[C@H]2Cc3ccc(O)cc3[C@]1(CCCCN[C@@H](Cc1ccccc1)C(N)=O)CCN2CC1CC1
reportedProperty: pEC50
observedMeasurement: 10.10
//
smi: C[C@H]1[C@H]2Cc3ccc(O)cc3[C@]1(CCNCCc1ccc(S(N)(=O)=O)cc1)CCN2C
reportedProperty: pEC50
observedMeasurement: 7.21
//
smi: C[C@H]1[C@H]2Cc3ccc(O)cc3[C@]1(CC(=O)NCCc1ccc(S(N)(=O)=O)cc1)CCN2C
reportedProperty: pEC50
observedMeasurement: 5.95
//
smi: COc1ccc2c(c1)[C@@]1(CCOCc3ccccc3)CCN(C)[C@@H](C2)[C@H]1C
reportedProperty: pEC50
observedMeasurement: 5.43
//
smi: C[C@H]1[C@H]2Cc3ccc(O)cc3[C@]1(CCNC(=O)Cc1ccc(C(=O)O)cc1)CCN2CC1CC1
reportedProperty: pEC50
observedMeasurement: 7.73
//
smi: COc1ccc2c(c1)[C@]1(CCNCCCN3CCCC3=O)CCN(C)[C@H](C2)[C@@H]1C
reportedProperty: pEC50
observedMeasurement: 4.94
